src = patent US9321752B2

Measured pIC50 by item
assayedTarget: Recombinant three-repeat microtubule-binding domain (3R-MBD) of tau protein (Homo sapiens)
Sequence (P10636 2-758 limits assumed): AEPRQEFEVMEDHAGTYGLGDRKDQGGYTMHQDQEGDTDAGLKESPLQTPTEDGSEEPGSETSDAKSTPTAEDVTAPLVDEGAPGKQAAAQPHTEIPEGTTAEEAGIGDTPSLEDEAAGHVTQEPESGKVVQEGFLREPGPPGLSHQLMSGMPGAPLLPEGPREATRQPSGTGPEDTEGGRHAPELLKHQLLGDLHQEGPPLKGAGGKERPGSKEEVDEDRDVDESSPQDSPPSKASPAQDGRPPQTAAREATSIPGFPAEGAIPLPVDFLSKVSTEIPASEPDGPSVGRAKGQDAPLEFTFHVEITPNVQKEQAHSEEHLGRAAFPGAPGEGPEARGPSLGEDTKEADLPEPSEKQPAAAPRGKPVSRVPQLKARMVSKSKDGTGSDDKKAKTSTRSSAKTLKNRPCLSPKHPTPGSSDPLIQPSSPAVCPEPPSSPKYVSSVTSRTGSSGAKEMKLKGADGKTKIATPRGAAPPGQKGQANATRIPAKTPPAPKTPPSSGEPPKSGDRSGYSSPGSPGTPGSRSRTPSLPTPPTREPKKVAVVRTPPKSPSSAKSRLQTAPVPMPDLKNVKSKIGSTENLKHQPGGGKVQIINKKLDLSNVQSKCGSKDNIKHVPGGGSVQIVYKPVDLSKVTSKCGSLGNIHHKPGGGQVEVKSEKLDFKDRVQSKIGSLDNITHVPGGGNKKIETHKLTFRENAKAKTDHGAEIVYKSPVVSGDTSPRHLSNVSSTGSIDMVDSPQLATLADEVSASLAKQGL
measurementProtocol: Determination of tau aggregation inhibitory activity (thioflavin T fluorescence, heparin-induced)
experimentalConditions: 10 μM tau 3R-MBD, 10 μM heparin, 37° C. for 16 hours, thioflavin T
Note on pIC50: it is the negative log10 of concentration, concentration in mol/L.

So for `Cn1ccc2ccc(/C=C/c3cc(/C=C/c4ccc(OCc5ccccn5)cc4F)n[nH]3)cc21` , the logged pIC50 turned out to be 6.22

So for `Cn1cccc1/C=C/c1cc(/C=C/c2ccc(OCc3ccccn3)cc2F)n[nH]1` , the logged pIC50 turned out to be 6.29

So for `Cn1cccc1/C=C/c1cc(/C=C/c2ccc(OCc3ccccn3)cc2)n[nH]1` , the logged pIC50 turned out to be 6.26

So for `Cn1ccc2ccc(/C=C/c3cc(/C=C/c4ccc(OCc5ccccn5)cc4)n[nH]3)cc21` , the logged pIC50 turned out to be 6.19
